# system-name: T1, SNTB2, Q13425
# T1 sequence (Q13425 110-208, limits assumed, looked up): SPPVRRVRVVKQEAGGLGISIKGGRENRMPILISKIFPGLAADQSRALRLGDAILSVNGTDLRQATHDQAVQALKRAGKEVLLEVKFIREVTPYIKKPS
# test-details: holdup assay
# Set-up: key: below the threshold = too weak to quantify, mostly under pKd 3.1 to 4
# condition-label: plain residues with an end cap or a label only (N-terminal biotin on a linker: ttds)
property-name: pKd
Reply briefly: the number, and no unit.

- KLVIKTETTV [RASSF6, Q6ZTQ3]: 4.2
- SRSRRRETAL [HPV33-E6, P06427]: 4.56
- PSRDRKETSI [RALBP1, Q15311]: 3.94

Consider the additional binder presented here.
Summary for this binder, SSIDLWETAL [SLC15A5, A6NIM6] : pKd is 5.54
